Values were extracted from PubChem BioAssay.

- assay protocol: antimalarial activity against Dd2 strain (AID 2302);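 also: 0% = DMSO untreated growth and 100% = chloroquine plus artemisinin killed control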
- condition description: P. falciparum Dd2 in RBCs, LDH growth readout, 72 h; at 2 µM
Activity calls are given as the source filed them.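 The calls were made as follows: active = growth inhibition above 50% at the single 2 µM test dose, taken to imply half-maximal potency below 2 µM; inactive = the rest.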
Assign a class; possible classes are active, inactive

Look over these answered cases.
Cc1[nH]c2ccccc2c1C(=O)C(C)Sc1nnc(-c2ccccc2F)o1 (centres undefined): active
CN(C(=O)/C=C/c1c(Cl)cccc1Cl)C1CCN(CCCCCNC(=O)/C=C/c2ccc(Cl)c(Cl)c2)CC1: active
Cc1cccc2[nH]c(-c3ccc(-c4ccc(CN5CCC(C(N)=O)CC5)cc4)s3)nc12: active
CC(C)C[C@H](Nc1ccc(C#N)c2ccccc12)C(=O)NC(C)(C)C12CC3CC(CC(C3)C1)C2: inactive

Could you kindly confirm the outcome this assay logged for O=C(c1cc2ccccc2o1)N1CCc2cc3nccc(N4CCN5CCC[C@H]5C4)c3cc21 ?
active

Could you kindly confirm the outcome this assay logged for COc1cc(Cc2cnc(N)nc2N)cc(OCCCCC2SC(=O)NC2=O)c1Br (centres undefined) ?
inactive

Could you kindly confirm the outcome this assay logged for COc1ccc(-c2cnc(NCc3ccccc3)nc2)cc1CNC1CCN(C)CC1 ?
active

Could you kindly confirm the outcome this assay logged for C[C@H](Cc1ccc(C[C@@H](C)NC[C@H](O)c2cccc(Cl)c2)cc1)NC[C@H](O)COc1ccccc1 ?
active

Could you kindly confirm the outcome this assay logged for Clc1ccc(CNCC2CCN(CC3CCCCC3)CC2)cc1Cl ?
inactive

----------
- assay protocol: HepG2 cytotoxicity, primary screen, cytotoxicity control for P. falciparum antimalarial project, cell-based, ATP luminescence (AID 2303);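 also: 0% = DMSO wells and 100% = digitonin-killed cells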
- condition description: HepG2 viability, 24-48 h, at 10 µM, stronger effect = higher value
property label: inhibition (%)
Supply the numeric figure in %, leaving out any unit text.

Examples with their reported inhibition follow.
COc1ccc2ccccc2c1C=NNc1cc(C)nc2c(C)cccc12: -3
Cc1ccc2c(=O)cc(CCc3cccc(F)c3F)n(CC(=O)N(Cc3ccc(-c4ccc(C(F)(F)F)cc4)cc3)C3CCN(C(C)C)CC3)c2n1: 58
COc1ccc2c(NN=Cc3cccc(C)n3)ccnc2c1: -12

Could you tell me which inhibition is on file for NC1CCCN(Cc2cccc(-c3cccc(-c4nc5ccccc5[nH]4)c3)c2)C1 (stereo unspecified) ?
24

Could you tell me which inhibition is on file for O=C(Nc1ccc(-c2ccccc2)cc1)Nc1cccc(Cn2nc(Cl)c(N3CCCNCC3)cc2=O)c1 ?
13

Could you tell me which inhibition is on file for CC(C)(C)c1ccc(CNC(=O)/C=C/c2ccc(CNC3CCNCC3)cc2)cc1 ?
6

Could you tell me which inhibition is on file for CC(=O)c1ccc(-c2ccccc2)s1 ?
-2

Could you tell me which inhibition is on file for CCOC(=O)Cc1nc(N)c(C(=O)OCC)[nH]1 ?
2

Could you tell me which inhibition is on file for COc1ccc2nccc([C@@H](O)CN3CCC(NCCOc4ccncc4)CC3)c2c1 ?
11

Could you tell me which inhibition is on file for Cc1nc2nc(N)nc(N)c2c(C)c1Cc1ccc(C#N)cc1 ?
69

Could you tell me which inhibition is on file for COCCSc1nc2scc(C)c2c(=O)n1Cc1cccc(OC)c1 ?
0

Could you tell me which inhibition is on file for CC(C)n1ncc2c(C(=O)N3CCCCCC3)cc(-c3ccccc3)nc21 ?
-12

Could you tell me which inhibition is on file for CN(C)c1ccc(-c2ccc(C(=O)NC3CCN(Cc4ccc5c(c4)OCCO5)CC3)s2)cc1 ?
36

Could you tell me which inhibition is on file for O=C1NC(=O)C(c2ccc(Cl)cc2)=C1Nc1cccc(S(=O)(=O)C(F)(F)F)c1 ?
1

Could you tell me which inhibition is on file for CC(C)C[C@H](NC(=O)c1ccc(OCCN2CCOCC2)cc1)C(=O)N[C@H](/C=N/N1CCN(C)C1=O)CCc1ccccc1 ?
3
